Data provenance: ChEMBL document CHEMBL3576853

# System: Mycobacterium tuberculosis
# assayNotes: Inhibition of Mycobacterium tuberculosis recombinant InhA assessed as enzyme activity measured as NADH oxidation using 2-trans-decenyl CoA as substrate at 50 uM by TECAN spectrophotometer analysis
# Design: scale not given: the % may be the effect or the level left
measurementName: Activity (%)

{"columns": ["compoundStructure", "scaleUnit", "numericValue"],
 "data": [
  ["O=C(Cc1ccccc1)N1CCN(Cc2cccc(Oc3ccccc3)c2)CC1", "%", 65.6],
  ["COc1cccc(C(=O)N2CCN(Cc3cccc(Oc4ccccc4)c3)CC2)c1OC", "%", 65.1],
  ["O=C(O)C(=O)O.O=C(c1ccccc1F)N1CCN(Cc2cccc(Oc3ccccc3)c2)CC1", "%", 21.9],
  ["O=C(c1ccccc1)N1CCN(Cc2cccc(Oc3ccccc3)c2)CC1", "%", 21.9],
  ["O=C(O)C(=O)O.O=C(c1cccnc1)N1CCN(Cc2cccc(Oc3ccccc3)c2)CC1", "%", 34]
]}
